% inhibition of biotinylated nAbs listing for selected binders.
Molecular target: T1, EBV gp350 expressed on the surface of stably transfected CHO cells (Epstein-Barr virus, UniProt P03200 1-907)
T1 construct: also called native gp350; gp350 expressing CHO cells
T1 sequence: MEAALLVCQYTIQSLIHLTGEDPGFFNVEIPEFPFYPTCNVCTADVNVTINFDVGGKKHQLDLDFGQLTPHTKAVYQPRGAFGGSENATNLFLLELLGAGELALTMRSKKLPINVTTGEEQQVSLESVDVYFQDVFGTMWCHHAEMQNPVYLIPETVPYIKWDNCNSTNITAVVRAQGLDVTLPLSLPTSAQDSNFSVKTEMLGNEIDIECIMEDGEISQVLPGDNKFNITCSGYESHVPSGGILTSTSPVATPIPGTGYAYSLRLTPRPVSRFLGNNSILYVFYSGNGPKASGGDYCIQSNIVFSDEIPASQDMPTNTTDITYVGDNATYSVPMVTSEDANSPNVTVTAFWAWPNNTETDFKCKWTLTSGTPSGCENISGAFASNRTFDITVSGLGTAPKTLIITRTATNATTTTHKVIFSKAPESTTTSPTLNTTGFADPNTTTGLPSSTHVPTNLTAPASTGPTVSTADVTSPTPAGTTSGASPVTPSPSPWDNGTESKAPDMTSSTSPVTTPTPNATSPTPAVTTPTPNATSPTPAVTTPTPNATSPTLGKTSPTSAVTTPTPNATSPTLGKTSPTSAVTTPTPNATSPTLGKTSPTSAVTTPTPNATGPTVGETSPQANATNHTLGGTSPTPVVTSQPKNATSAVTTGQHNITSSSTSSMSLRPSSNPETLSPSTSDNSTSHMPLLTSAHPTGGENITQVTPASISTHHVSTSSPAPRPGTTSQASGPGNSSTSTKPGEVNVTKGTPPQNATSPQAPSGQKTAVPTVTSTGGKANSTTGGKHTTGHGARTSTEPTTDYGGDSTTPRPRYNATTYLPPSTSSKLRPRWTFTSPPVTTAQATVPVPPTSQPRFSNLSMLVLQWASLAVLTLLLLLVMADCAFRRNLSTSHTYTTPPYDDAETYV
Test: cross-competition on gp350-CHO cells (flow), unlabeled 500 µg/ml; competitor: biotinylated 54A1
Write the answer as a number in %, unit excluded.

binder: HB5 (antibody, V domains shown, also called mHB5) VH: AELVRPGASVKISCKAFGYTFTNHNINWVKQRPGQGLDWIGYINPYNDYTSYNQKFKGKATLTVDKSSNTAYMELSSLTSEDSAVYYCARSEGWLRRGAWFAYWGQGTLVTVSA VL: AILSVSPGERVSFSCRASQSIGTSIHWYQQRTNDSPRLLIKYASESISGIPPRFSGSGSGTDFTLSINSVESEDIADYHCQQSNSWPMLTFGAGTKLELKR
value measured: 13
//
binder: HB11 (antibody, V domains shown) VH: PSLVKPSQTLSLTCSVTGDSITSGFWNWIRKFPGNKLEYMGYISYSGSTYYNPSLKSRISITRDTSKNQYYLQLNSVTTEDTATYYCARGNGGNYDWYFDVWGAGTTVTVSS VL: AIMSASLGEKVTMSCRASSSVNFMNWYQQKSDDSPKLLIYYISNLAPGVPARFSGSGSGNSYSLTISGMEGEDAATYYCQQFTSSPSWTFGGGTKLEIKR
value measured: 9

# input Form field: reported % inhibition of biotinylated nAbs of murine 72A1 (m72A1), anti-EBV gp350 neutralizing antibody from hybridoma HB168 (antibody, V domains shown, also called nAb-72A1; mouse 72A1) VH: EVQLQQSGPELVKPGTSMKISCKASGSSFTDYTMNWMKQSHGKNLEWIGLINPYNGGTRYNQKFKGKATLTLDKSSSTAYMEVLSLTSEDSAVYYCAGGLRRVNWFAYWGQGTLVSVSA VL: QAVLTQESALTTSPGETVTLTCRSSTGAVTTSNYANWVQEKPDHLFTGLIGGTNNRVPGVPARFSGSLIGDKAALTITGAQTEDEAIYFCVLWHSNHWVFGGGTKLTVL
# output 1
